test.details: Inhibition of baker's yeast alpha-glucosidase using p-nitrophenyl-alpha-D-glucopyranoside as substrate after 30 mins by spectrophotometric analysis
Set-up: species or system Saccharomyces cerevisiae
reported.property: IC50 (µM)

[a] CC(C)=CCC/C(C)=C/Cc1c(O)cc(O)c2c(=O)c(-c3ccc(O)cc3)coc12
[b] O=c1c(-c2ccc(O)cc2)coc2cc(O)cc(O)c12
[c] CC(C)=CCC/C(C)=C/Cc1cc(C(=O)/C=C/c2ccc(O)cc2)c(O)c(CC=C(C)C)c1O
[d] CC(C)=CCC/C(C)=C/Cc1c(O)cc(O)c2c(=O)c(O)c(-c3ccc(O)c(O)c3)oc12
Sort the molecules on IC50; start with the lowest figure. // rank by listing labels in the order requested d, a, c, b

[A] CC(C)=CCC/C(C)=C/Cc1c(O)c(CC=C(C)C)cc(C(=O)/C=C/c2ccc(O)cc2)c1O
[B] C[C@H]1O[C@H](O[C@H]2[C@H](O)[C@@H](O)[C@@H](O[C@H]3[C@H](O)[C@@H](O)C(O)O[C@@H]3CO)O[C@@H]2CO)[C@H](O)[C@@H](O)[C@@H]1N[C@H]1C=C(CO)[C@@H](O)[C@H](O)[C@H]1O (some centres undefined)
[C] CC(C)=CCc1c(O)cc(O)c2c(=O)c(O)c(-c3ccc(O)c(O)c3)oc12
[D] CC(C)=CCc1cc(C(=O)/C=C/c2ccc(O)cc2)c(O)c(CC=C(C)C)c1O
Rank descending by IC50. // rank by listing labels in the order requested B, A, D, C

[1] CC(C)=CCC/C(C)=C/Cc1cc(C(=O)/C=C/c2ccc(O)cc2)c(O)cc1O
[2] CC(C)=CCc1cc(C(=O)/C=C/c2ccc(O)cc2)c(O)cc1O
Which entry shows the lesser value of IC50 here, 1 or 2 ? Give the label under which the chosen entry appears. 2
(2: 5.3 µM, 1: 16.3 µM)
